protocolDetails: oxaloacetate reductase activity, NADH absorption at 340 nm
Assay type: biochemical
conditionDetails: E. coli Mdh mutants; measured at 0.5 mM oxaloacetate
valueKind: Max. specific activity, OAA (µmol/mg/min)
Lab book: enter the figure in µmol/mg/min, no units written.

Using the record for R81A M85Q I12V: E. coli malate dehydrogenase mutant, SEQ ID No. 108 (protein, listed as Escherichia coli) MKVAVLGAAGGVGQALALLLKTQLPSGSELSLYDIAPVTPGVAVDLSHIPTAVKIKGFSGEDATPALEGADVVLISAGVAAKPGQDRSDLFNVNAGIVKNLVQQVAKTCPKACIGIITNPVNTTVAIAAEVLKKAGVYDKNKLFGVTTLDIIRSNTFVAELKGKQPGEVEVPVIGGHSGVTILPLLSQVPGVSFTEQEVADLTKRIQNAGTEVVEAKAGGGSATLSMGQAAARFGLSLVRALQGEQGVVECAYVEGDGQYARFFSQPLLLGKNGVEERKSIGTLSAFEQNALEGMLDTLKKDIALGEEFVNK , report its Max. specific activity, OAA. 1.84

Which Max. specific activity, OAA is reported for this molecule? R81A 112V: E. coli malate dehydrogenase mutant, SEQ ID No. 115 as printed (protein, listed as Escherichia coli) MKVAVLGAAGGVGQALALLLKTQLPSGSELSLYDIAPVTPGVAVDLSHIPTAVKIKGFSGEDATPALEGADVVLISAGVAAKPGMDRSDLFNVNAGIVKNLVQQVAKTCPKACIGIITNPVNTTVAIAAEVLKKAGVYDKNKLFGVTTLDIIRSNTFVAELKGKQPGEVEVPVIGGHSGVTILPLLSQVPGVSFTEQEVADLTKRIQNAGTEVVEAKAGGGSATLSMGQAAARFGLSLVRALQGEQGVVECAYVEGDGQYARFFSQPLLLGKNGVEERKSIGTLSAFEQNALEGMLDTLKKDIALGEEFVNK 0.5

What measured Max. specific activity, OAA goes with R81A M85E: E. coli malate dehydrogenase mutant, SEQ ID No. 106 (protein, listed as Escherichia coli) MKVAVLGAAGGIGQALALLLKTQLPSGSELSLYDIAPVTPGVAVDLSHIPTAVKIKGFSGEDATPALEGADVVLISAGVAAKPGEDRSDLFNVNAGIVKNLVQQVAKTCPKACIGIITNPVNTTVAIAAEVLKKAGVYDKNKLFGVTTLDIIRSNTFVAELKGKQPGEVEVPVIGGHSGVTILPLLSQVPGVSFTEQEVADLTKRIQNAGTEVVEAKAGGGSATLSMGQAAARFGLSLVRALQGEQGVVECAYVEGDGQYARFFSQPLLLGKNGVEERKSIGTLSAFEQNALEGMLDTLKKDIALGEEFVNK ? 1

Param item = R81A G179D: E. coli malate dehydrogenase mutant, SEQ ID No. 112 (protein, listed as Escherichia coli) MKVAVLGAAGGIGQALALLLKTQLPSGSELSLYDIAPVTPGVAVDLSHIPTAVKIKGFSGEDATPALEGADVVLISAGVAAKPGMDRSDLFNVNAGIVKNLVQQVAKTCPKACIGIITNPVNTTVAIAAEVLKKAGVYDKNKLFGVTTLDIIRSNTFVAELKGKQPGEVEVPVIGGHSDVTILPLLSQVPGVSFTEQEVADLTKRIQNAGTEVVEAKAGGGSATLSMGQAAARFGLSLVRALQGEQGVVECAYVEGDGQYARFFSQPLLLGKNGVEERKSIGTLSAFEQNALEGMLDTLKKDIALGEEFVNK ; retrieve measured Max. specific activity, OAA. 0.37

Look up Max. specific activity, OAA: R81A: E. coli malate dehydrogenase mutant R81A, SEQ ID No. 102 (protein, listed as Escherichia coli) MDHRAMKVAVLGAAGGIGQALALLLKTQLPSGSELSLYDIAPVTPGVAVDLSHIPTAVKIKGFSGEDATPALEGADVVLISAGVAAKPGMDRSDLFNVNAGIVKNLVQQVAKTCPKACIGIITNPVNTTVAIAAEVLKKAGVYDKNKLFGVTTLDIIRSNTFVAELKGKQPGEVEVPVIGGHSGVTILPLLSQVPGVSFTEQEVADLTKRIQNAGTEVVEAKAGGGSATLSMGQAAARFGLSLVRALQGEQGVVECAYVEGDGQYARFFSQPLLLGKNGVEERKSIGTLSAFEQNALEGMLDTLKKDIALGEEFVNK 1.16
